- EXPERIMENT NOTES: Primary qHTS for delayed death inhibitors of the malarial parasite plastid, 96 hour incubation; note: potency is the fitted concentration of half-maximal effect
- RUN CONDITIONS: P. falciparum luciferase reporter growth; series mostly up to 28.7 µM
Screen size: about 320,000 compounds; about 22,000 (6.9%) were called active. Roughly 27% stayed inconclusive and do not appear here. Only a selection was taken, and actives are over-represented in it overall.
READOUT: Potency

Task: Looking for the measured Potency of Cc1ccc(N2C(=O)C3C4C=CC(CC4)C3C2=O)cc1Cl (configuration not stated) , can you help?
Output: 3.7 µM (active)

Task: Fill in: Potency of Cc1cccc(NC(=O)c2ccc3ccccc3n2)n1 is ___
Output: inactive

Task: Entry Cc1c(C)n(Cc2ccc(Cl)cc2)c2ccc(C(=O)NCCCN3CCOCC3)cc12 has what Potency?
Output: inactive

Task: I would be grateful if you could share the reported Potency for CCN1C(=O)[C@@H]2[C@@H](c3ccc(-c4ccc(OC)cc4)c(OC)c3)N3CCC[C@@]3(C(=O)OC)[C@@H]2C1=O .
Output: 10.4 µM (active)

Task: For the compound CC(=O)Nc1ccc(N2C(=O)C3C4C=CC(CC4)C3C2=O)cc1 (configuration not stated) , what Potency is on record?
Output: inactive

Task: Consider the compound CCCCCC(O)(CCN1CCCCC1)c1ccccc1 (configuration not stated) and give its measured Potency.
Output: inactive

Task: If you can, please state the reported Potency value of O=c1[nH]c(-c2cccs2)nc2ccccc12 .
Output: inactive

Task: Data request, read-out Potency, for CCOc1ccc(N(CC(=O)Nc2cccc(OC)c2)S(C)(=O)=O)cc1
Output: inactive

Task: Any idea what Potency was measured for CC(=O)Nc1sc2c(c1C(c1cccc(F)c1)N1CCN(CCO)CC1)CCCC2 (configuration not stated) ?
Output: 7.38 µM (active)

Task: Which measured Potency value corresponds to O=C(Nc1sc2c(c1C(=O)O)CCC2)c1ccccc1F ?
Output: inactive

Now look at this entry.
Task: Quick check: Potency of O=S(=O)(NC1CCCC1)c1ccc(-n2cnnn2)cc1 ?
Output: inactive
